System: P388 leukemia ip, CD2F1 mice, survival T/C
assay: NCI In Vivo Anticancer Drug Screen. Data for tumor model P388 Leukemia (intraperitoneal) in CD2F1 (CDF1) mice
measurement.conditions: endpoint: median survival time; dose: 100.0 mg/kg/injection; schedule: Q01DX001 (ip); vehicle: Klucel (hydroxypropylcellulose) (HPC); higher = longer survival
Toxic doses and inconclusive results are not listed.
Each entry below lists one item and its recorded T/C value.

GET /value?item= NC(=O)c1c(-c2ccccc2)nc2n1CCS2 &field=T/C returns 106 % of control

Looking up CC(/C=C/c1ccco1)=N\NC(=S)Nc1ccc(Cl)cc1 , I see its T/C listed as 91 % of control

Summary for this compound, CCOC(=O)CC/C(=C/c1cccc(OC)c1)[N+](=O)[O-] : T/C is 107 % of control

====

Listing: T/C of selected molecules
Tested on: P388 leukemia ip, CD2F1 mice, survival T/C
assay: NCI In Vivo Anticancer Drug Screen. Data for tumor model P388 Leukemia (intraperitoneal) in CD2F1 (CDF1) mice
measurement.conditions: endpoint: median survival time; dose: 200.0 mg/kg/injection; schedule: Q01DX009 (ip); vehicle: distilled water + Tween-80; higher = longer survival
Toxic doses and inconclusive results are not listed.

Solved entries:
Nc1ccc([N+](=O)[O-])cc1: 102 % of control
CC(=O)Oc1ccc(OC(C)=O)c2c1CC1OC1C2 (centres undefined): 111 % of control
Cc1cc(=O)[nH]c(NNC(=O)c2ccc(Cl)cc2)n1: 89 % of control

Kindly consider the entry below.
T/C reading for COC(=O)C(NC(=O)OCc1ccccc1)C(C)O (centres undefined) : 94 % of control

====

Tested on: P388 leukemia ip, CD2F1 mice, survival T/C
assay: NCI In Vivo Anticancer Drug Screen. Data for tumor model P388 Leukemia (intraperitoneal) in CD2F1 (CDF1) mice
measurement.conditions: endpoint: median survival time; dose: 200.0 mg/kg/injection; schedule: Q04DX002 (ip); vehicle: Klucel (hydroxypropylcellulose) (HPC); higher = longer survival
Inconclusive results and toxic doses are left out.
Known T/C of a selection of compounds

Clc1ccc(S[As](Sc2ccc(Cl)cc2)Sc2ccc(Cl)cc2)cc1: 114 % of control

// T/C value for CCn1c(=O)oc2ccc(Br)cc21 : 98 % of control

Per the record, O=C(O)C1(Cc2ccc(O)cc2)NCCS1 (centres undefined) has T/C of 104 % of control

T/C in this record for CCOC(=O)/C(C#N)=C(\CCC(C(=O)O)N1C(=O)c2ccccc2C1=O)OC (centres undefined) : 102 % of control

Form: compound = Cn1c(=O)c2nc(-c3ccc(Cl)c(Cl)c3)cnc2n(C)c1=O ; T/C = 95 % of control

compound O=C1SC(Nc2ccc([N+](=O)[O-])cc2)/C(=N\N=C2/C(Nc3ccc([N+](=O)[O-])cc3)SC(=O)N2Cc2ccccc2)N1Cc1ccccc1 (centres undefined) , T/C observed: 95 % of control

Entry NC(=S)N/N=C\c1nc2ccccc2c2ccccc12 — recorded T/C = 94 % of control

T/C measured on O=C(c1ccc(C(F)(F)F)cc1)N1C2C3C=CC(C3)C2N1C(=O)c1ccc(C(F)(F)F)cc1 (centres undefined) = 102 % of control

So, Nc1nnnn1/N=C/c1ccccc1 ? Its T/C was 100 % of control
